Tested on: Abp1 PPIs
assay: DHFR-PCA of Abp1 SH3-swapped baits (Fig. 2B-D, S2C, S2F);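 note: Euclidean distance between DHFR-PCA score profiles of the baits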
Type: cell-based, Saccharomyces cerevisiae
condition_label: distance to Abp1 bait with CYK3 SH3; sheet Fig2C
property: Protein-protein interaction distance between Abp1 SH3-swapped baits, to CYK3
Numbers only.

// below: answered molecules
PIN3 (protein, UniProt Q06449 2-215, looked up) [PSI+] inducibility protein 3: SASLINRSLTNIRTELDFLKGSNVISNDVYDQINKSLPAKWDPANAPRNASPASLEYVEALYQFDPQQDGDLGLKPGDKVQLLEKLSPEWYKGSCNGRTGIFPANYVKPAFSGSNGPSNLPPPPQYKAQELQQIPTQNSAASSYQQQPFPPPSTNYYQQPQQQPQQAPPPQQQQQQQQHQSSHSHLKSFGSKLGNAAIFGAGASIGSDIVNNIF
28.76
SHO1 (protein, UniProt P40073 1-367, looked up) High osmolarity signaling …: MSISSKIRPTPRKPSRMATDHSFKMKKFYADPFAISSISLAIVSWVIAIGGSISSASTNESFPRFTWWGIVYQFLIICSLMLFYCFDLVDHYRIFITTSIAVAFVYNTNSATNLVYADGPKKAAASAGVILLSIINLIWILYYGGDNASPTNRWIDSFSIKGIRPSPLENSLHRARRRGNRNTTPYQNNVYNDAIRDSGYATQFDGYPQQQPSHTNYVSSTALAGFENTQPNTSEAVNLHLNTLQQRINSASNAKETNDNSNNQTNTNIGNTFDTDFSNGNTETTMGDTLGLYSDIGDDNFIYKAKALYPYDADDDDAYEISFEQNEILQVSDIEGRWWKARRANGETGIIPSNYVQLIDGPEEMHR
24.75

With those in mind, consider the next molecule.
Input: Using known records, supply Protein-protein interaction distance between Abp1 SH3-swapped baits, to CYK3 for PEX13 (protein, UniProt P80667 1-386, looked up) Peroxisomal membrane protein …: MSSTAVPRPKPWETSASLEEPQRNAQSLSAMMTSNQQDSRPTEESNNSNSASESAPEVLPRPAALNSSGTYGESNTIPGIYGNSNYGIPYDNNPYSMNSIYGNSIGRYGYGGSYYGNNYGSFYGGGYGAGAGYGMNNGSGLGESTKATFQLIESLIGAVTGFAQMLESTYMATHNSFFTMISVAEQFGNLKEMLGSFFGIFAIMKFLKKILYRATKGRLGIPPKNFAESEGSKNKLIEDFQKFNDSGTINSNEKATRRKISWKPLLFFLMAVFGFPYLLNKFITKLQTSGTIRASQGNGSEPIDPSKLEFARALYDFVPENPEMEVALKKGDLMAILSKKDPLGRDSDWWKVRTKNGNIGYIPYNYIEIIKRRKKIEHVDDETRTH
Output: 29.86
